Values compiled from patent US20210045385A1.

Tested on: ragweed (common ragweed, Ambrosia elatior)
EXPERIMENTAL_PROTOCOL: Test A preemergence, visual plant response rating
Format: in vivo
CONDITION_LABEL: 500 g ai/ha Preemergence; approx. 10 days
Parameter: Ragweed plant response rating (0 to 100 scale). Scope: all listed entries.
READOUT: Ragweed plant response rating (0 to 100 scale)

INSERT INTO results (compound, observed_measurement) VALUES
  ('CO/N=C(\c1c(O)c(C)nn(C)c1=O)c1cccc2ccccc12', 100),
  ('CO/N=C(\c1ccccc1C(C)C)c1c(O)c(C)nn(C)c1=O', 70),
  ('C#CCO/N=C(/c1c(O)c(C)nn(C)c1=O)c1ccc(F)c2ccccc12', 100),
  ('C#CCON=C(c1c(O)c(C)nn(C)c1=O)c1cccc2ccccc12 (mixture of isomers)', 100),
  ('CCO/N=C(\c1c(O)c(C)nn(C)c1=O)c1cccc2ccccc12', 100);

###

Listed below: Wheat plant response rating (0 to 100 scale) values for each entry.
Tested on: wheat (Triticum aestivum)
EXPERIMENTAL_PROTOCOL: Test C postemergence, visual plant response rating
Format: in vivo
CONDITION_LABEL: Test C, postemergence, 125 g ai/ha
READOUT: Wheat plant response rating (0 to 100 scale)

INSERT INTO measurements (compound, observed_measurement) VALUES
  ('C#CCO/N=C(\c1cccc(/C=C/Cl)c1)c1c(O)c(C)nn(C)c1=O [Compound 254]', 60),
  ('C=CCON=C(c1cc(Cl)cc(Cl)c1Cl)c1c(O)c(C)nn(C)c1=O [Compound 294]', 60),
  ('C#CCO/N=C(/c1cc(Cl)cc(Br)c1)c1c(O)c(C)nn(C)c1=O [Compound 291]', 90),
  ('CO/N=C(/c1cc(Cl)cc(Br)c1)c1c(O)c(C)nn(C)c1=O [Compound 156]', 50),
  ('CON=C(c1cc(Cl)cc(Cl)c1Cl)c1c(O)c(C)nn(C)c1=O [Compound 213]', 60),
  ('CON=C(c1ccc(F)c(Br)c1)c1c(O)c(C)nn(C)c1=O [Compound 176]', 0),
  ('CCO/N=C(\c1c(O)c(C)nn(C)c1=O)c1cccc2cc(Cl)ccc12 [Compound 273]', 0),
  ('C#CCO/N=C(\c1ccc(F)c(Cl)c1)c1c(O)c(C)nn(C)c1=O [Compound 230]', 60),
  ('CON=C(c1cc(C)cc(Cl)c1)c1c(O)c(C)nn(C)c1=O [Compound 174]', 0);

###

Test system: kochia (Bassia scoparia)
EXPERIMENTAL_PROTOCOL: Test C postemergence, visual plant response rating
Format: in vivo
CONDITION_LABEL: Test C, postemergence, 1000 g ai/ha
Text: […]
Listed below: Kochia plant response rating (0 to 100 scale) values for each entry.
READOUT: Kochia plant response rating (0 to 100 scale)

INSERT INTO results (structure_as_smiles, observed_measurement) VALUES
  ('CO/N=C(/c1c(O)cnn(C)c1=O)c1cccc2ccccc12', 80),
  ('CCO/N=C(/c1c(O)cnn(C)c1=O)c1cccc2ccccc12', 10),
  ('CO/N=C(\c1c(O)cnn(C)c1=O)c1cccc2ccccc12', 80),
  ('C#CCO/N=C(/c1c(O)cnn(C)c1=O)c1cccc2ccccc12', 70);
